system.under.test: T1, 大鼠结合素-4 (rat Nectin-4) (rat, UniProt Q8R007 31-508 (mouse entry))
T1 construct: Transiently expressed on 293T cells; also called NP_001102546.1
T1 chain: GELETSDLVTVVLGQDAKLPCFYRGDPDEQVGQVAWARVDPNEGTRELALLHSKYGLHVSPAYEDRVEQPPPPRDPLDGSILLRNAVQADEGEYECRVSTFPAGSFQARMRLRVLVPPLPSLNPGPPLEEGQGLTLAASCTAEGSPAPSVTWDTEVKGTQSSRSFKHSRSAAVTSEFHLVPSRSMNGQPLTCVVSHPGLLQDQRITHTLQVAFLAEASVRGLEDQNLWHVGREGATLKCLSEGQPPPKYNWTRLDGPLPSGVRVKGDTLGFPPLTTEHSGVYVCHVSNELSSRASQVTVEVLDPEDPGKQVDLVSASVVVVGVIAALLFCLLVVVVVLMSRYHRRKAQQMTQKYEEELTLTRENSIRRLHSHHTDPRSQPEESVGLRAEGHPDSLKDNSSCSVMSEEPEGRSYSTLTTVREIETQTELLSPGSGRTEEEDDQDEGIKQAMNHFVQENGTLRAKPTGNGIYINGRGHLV
experiment.notes: flow cytometry on transiently transfected 293T cells; +++ = EC50 below 5nM
Here, each record is paired with measured EC50 data.

>  <binder>
N4_mAb 8 (antibody, V domains shown, Murine variable regions) VH: QVQLQQSGPVLVKPGASVRISCKASGYTFTSYYIHWVKQRPGQGLEWIGWIYPGNVNTKYNENFRDKATLTADKSSSTSYMQLSSLTSEDSAVYFCARGIYYFDYWGQGTTLTVSS VL: IIVMTQTPKFLLVSAGDRVTITCKASQSVNNDVAWYQEKPGQSPKLLIYYASNRDTGVPDRFTGSGYGTDFTFTISTVQAEDLAVYFCHQDYSSPFTFGSGTKLEIK

>  <EC50>
< 5 nM

$$$$
>  <binder>
N4_mAb 7 (antibody, V domains shown, Murine variable regions) VH: QVQLQQSGPELVKPGASVKMSCKASGYTFTTYYIHWVKQRPGQGLEWIGWIYPGNAGIKSNEKFKGKTTLTADKSSSTAYMLLSSLTSEDSAIYFCARGVYFFDYWGQGTTLTVSS VL: SIVMTQTPKFLLVSAGDRVTITCKASQSVNNDVSWFQQKPGQSPKLLIYYASNRYTGVPDRFSGSGYGTDFTFTITTVQAEDLAVYFCQQDYSSPYTFGGGTKLEIK

>  <EC50>
< 5 nM

$$$$
>  <binder>
N4_mAb 5 (antibody, V domains shown) VH: EVQLQQSGPDLVKPGASVKISCKASGYSFTGHYMHWVKQSHGKSLEWIGRVNPNNGGSSYNQKFKDKAILTVDKSSTTAYMELRSLTSEDSAVYYCARDPLGGSYGFAYWGQGTLVTVSA VL: DIVLTQSPASLAVSLGQRATISCRASQSVTTSSYSYMHWYQQKPGQPPKLLIKYASNLESGVPARFSGSGSGTDFTLNIHPVEEEDTATYYCQHSWEIPYTFGGGTKLEMK

>  <EC50>
< 5 nM

$$$$
